# Tested on: NCI-H460 lung
# assay: NCI tumour cell line growth inhibition, 48 h
For each record, write down the corresponding TGI.

Input NNC(=Nc1ccccc1)SCc1ccccc1 . Output TGI: > 100 µM

Input O=C1CCCCCCCC/C=C/CCC(c2ccco2)O1 (centres undefined) . Output TGI: > 100 µM

Input N#CC1=C(N)N=C(N2CCCCC2)C(C#N)C12Nc1ccccc1S2 (centres undefined) . Output TGI: > 100 µM

Input CN(NC(=O)CC(=O)NN(C)C(=S)c1ccccc1)C(=S)c1ccccc1 . Output TGI: > 100 µM

Input COC(=O)C1=COC(C)C2C[n+]3ccc4c([nH]c5ccccc54)c3CC12 (centres undefined) . Output TGI: > 100 µM

Input Nc1ccccc1/C=C\c1ccccc1 . Output TGI: > 100 µM

Input COc1ccc(C2c3cc4c(cc3OC(NNC(N)=O)C2C)OCO4)cc1 (centres undefined) . Output TGI: 98.9 µM

Input COC(=O)NC/C=C\c1nc(CC/C=C\C(=O)OC2CC3CC(=O)O[C@H](/C=C/CC(C)C)C[C@H]4CCC(C)C(C[C@H](OC)CC(C2)O3)O4)co1 (some centres undefined) . Output TGI: 63.5 µM

Input Nc1nc2cc(CNc3ccc(C(=O)O)cc3)ccc2nc1-c1ccccc1 . Output TGI: > 100 µM

Input Nc1ccc(C(=O)c2ccc(N)c(Br)c2)cc1Br . Output TGI: 5.76 µM

Input C1CNCCNCCNCCN1 . Output TGI: > 100 µM

Input COc1ccc(-c2cc(C3CC3)nc(SCC(=O)O)c2C#N)cc1 . Output TGI: > 100 µM

Input C\C=C/C=C/C=C/C(=O)O . Output TGI: > 100 µM

Input CCCc1ccc(S(=O)(=O)N[C@H]2CC[C@H]3[C@@H]4CCc5cc(O)ccc5[C@H]4CC[C@]23C)cc1 . Output TGI: 6.41 µM
